From: paper PMC10364322

System: hiPSC-CMs (iCell-Cardiomyocytes^2)
Settings: 0.1 µM, 2h
reported-endpoint: Cessation of beating, number of observations/total well numbers

COc1cccc2c1C(=O)c1c(O)c3c(c(O)c1C2=O)C[C@@](O)(C(=O)CO)C[C@@H]3O[C@H]1C[C@H](N)[C@H](O)[C@H](C)O1    0/5
N=C(N)c1ccc(OCCCCCOc2ccc(C(=N)N)cc2)cc1    0/6
COc1cc2c(Nc3ccc(Br)cc3F)ncnc2cc1OCC1CCN(C)CC1    0/5

Field: next compound
# query: Cessation of beating, number of observations/total well numbers | item Cc1cn(-c2cc(NC(=O)c3ccc(C)c(Nc4nccc(-c5cccnc5)n4)c3)cc(C(F)(F)F)c2)cn1 | system: hiPSC-CMs (iCell-Cardiomyocytes^2)
0/5
